- target_or_test_system: Dual specificity mitogen-activated protein kinase kinase 7 (Homo sapiens)
- Sequence (O14733 whole entry): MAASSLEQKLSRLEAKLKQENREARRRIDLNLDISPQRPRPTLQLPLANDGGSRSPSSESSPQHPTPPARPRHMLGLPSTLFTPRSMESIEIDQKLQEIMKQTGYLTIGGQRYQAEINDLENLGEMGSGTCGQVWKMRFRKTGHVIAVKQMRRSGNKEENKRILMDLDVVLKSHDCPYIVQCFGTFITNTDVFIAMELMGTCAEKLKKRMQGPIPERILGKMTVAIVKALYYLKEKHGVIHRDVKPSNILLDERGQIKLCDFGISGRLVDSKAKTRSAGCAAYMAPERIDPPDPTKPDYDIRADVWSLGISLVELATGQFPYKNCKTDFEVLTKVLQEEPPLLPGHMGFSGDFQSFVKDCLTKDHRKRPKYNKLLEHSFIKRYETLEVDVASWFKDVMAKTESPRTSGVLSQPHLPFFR
- protocol_summary: Inhibition of human MKK7beta
parameter_measured: IC50

What measured IC50 goes with O=C1NC(=O)/C(=C/c2ccc(-c3ccc(F)cc3O)o2)S1 ?
> 10 µM

====

- protocol_summary: Metabolism in rat microsome after 1 hr
- Format: ADME
- details: microsomes, read-out: Activity
parameter_measured: metabolised at 1 h (%)
One number for each entry, in %.

What measured metabolised at 1 h goes with O=C1NC(=O)/C(=C/c2ccc(-c3ccc(F)cc3O)o2)S1 ?
16

====

- target_or_test_system: Phosphatidylinositol 4,5-bisphosphate 3-kinase catalytic subunit gamma isoform (Homo sapiens)
- Sequence (P48736 whole entry, canonical isoform): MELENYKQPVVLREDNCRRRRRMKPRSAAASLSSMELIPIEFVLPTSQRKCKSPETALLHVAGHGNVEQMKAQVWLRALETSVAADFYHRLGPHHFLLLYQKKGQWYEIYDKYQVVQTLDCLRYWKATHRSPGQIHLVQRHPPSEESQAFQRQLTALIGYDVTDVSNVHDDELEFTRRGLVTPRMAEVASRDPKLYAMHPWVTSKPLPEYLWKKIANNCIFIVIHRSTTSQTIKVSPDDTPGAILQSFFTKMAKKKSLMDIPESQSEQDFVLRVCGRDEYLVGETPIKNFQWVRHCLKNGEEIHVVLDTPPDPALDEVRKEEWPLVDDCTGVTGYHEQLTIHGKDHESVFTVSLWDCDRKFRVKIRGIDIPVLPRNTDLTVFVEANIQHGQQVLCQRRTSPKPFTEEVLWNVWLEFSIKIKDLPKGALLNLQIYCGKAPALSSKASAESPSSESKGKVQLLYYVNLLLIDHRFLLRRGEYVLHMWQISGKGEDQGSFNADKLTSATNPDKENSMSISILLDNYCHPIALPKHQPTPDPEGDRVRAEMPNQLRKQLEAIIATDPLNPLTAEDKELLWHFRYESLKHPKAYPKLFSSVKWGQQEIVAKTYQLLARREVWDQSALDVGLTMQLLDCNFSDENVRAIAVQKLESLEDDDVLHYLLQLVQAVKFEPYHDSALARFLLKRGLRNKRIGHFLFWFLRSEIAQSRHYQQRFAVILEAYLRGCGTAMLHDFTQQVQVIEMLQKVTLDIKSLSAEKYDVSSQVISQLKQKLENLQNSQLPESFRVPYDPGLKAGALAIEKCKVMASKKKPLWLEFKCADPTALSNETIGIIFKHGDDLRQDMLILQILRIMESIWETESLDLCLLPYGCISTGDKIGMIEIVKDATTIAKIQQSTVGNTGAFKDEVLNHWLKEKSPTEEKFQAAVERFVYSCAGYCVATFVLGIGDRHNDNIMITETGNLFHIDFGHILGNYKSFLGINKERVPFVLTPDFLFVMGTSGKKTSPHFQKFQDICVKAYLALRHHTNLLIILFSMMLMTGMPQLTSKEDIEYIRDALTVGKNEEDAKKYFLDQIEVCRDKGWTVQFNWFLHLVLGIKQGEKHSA
- protocol_summary: Inhibition of human PI3Kgamma
Consider the cut-off 0.8 µM. If the recorded IC50 is strictly smaller, the label is YES; if not, the label is NO.

Look over these answered cases.
smiles_data	cat
O=C1NC(=O)/C(=C/c2ccc(-c3ccoc3)o2)S1	NO
N#Cc1ccc(O)c(-c2ccc(/C=C3\SC(=O)NC3=O)o2)c1	YES
O=C1NC(=O)/C(=C/c2ccc(-c3ccc4c(c3)OCO4)o2)S1	NO
O=C1NC(=O)/C(=C/c2ccc(-c3cccnc3)o2)S1	NO
O=C1NC(=O)/C(=C/c2ccc(-c3ccc(O)cc3)o2)S1	YES

Lab note: IC50 threshold 0.8 µM. Does this compound come in strictly under it? O=C1NC(=O)/C(=C/c2ccc(-c3cc(F)ccc3O)o2)S1
YES

Lab note: IC50 threshold 0.8 µM. Does this compound come in strictly under it? O=C1NC(=O)/C(=C/c2ccc(-c3cc(O)ccc3O)o2)S1
YES

Lab note: IC50 threshold 0.8 µM. Does this compound come in strictly under it? COc1cccc(-c2ccc(/C=C3\SC(=O)NC3=O)o2)c1
NO

Lab note: IC50 threshold 0.8 µM. Does this compound come in strictly under it? O=C1NC(=O)/C(=C/c2ccc(-c3cccc(O)c3)o2)S1
YES

Lab note: IC50 threshold 0.8 µM. Does this compound come in strictly under it? O=C1NC(=O)/C(=C/c2ccc(-c3ccccn3)o2)S1
YES

Lab note: IC50 threshold 0.8 µM. Does this compound come in strictly under it? COC(=O)c1cccc(-c2ccc(/C=C3\SC(=O)NC3=O)o2)c1
NO

Lab note: IC50 threshold 0.8 µM. Does this compound come in strictly under it? O=C1NC(=O)/C(=C/c2ccc(-c3cccc(C(=O)O)c3)o2)S1
NO

Lab note: IC50 threshold 0.8 µM. Does this compound come in strictly under it? O=C1NC(=O)/C(=C/c2ccc(-c3cc(OC(F)(F)F)ccc3O)o2)S1
YES

Lab note: IC50 threshold 0.8 µM. Does this compound come in strictly under it? COC(=O)c1ccc(-c2ccc(/C=C3\SC(=O)NC3=O)o2)c(O)c1
YES

Lab note: IC50 threshold 0.8 µM. Does this compound come in strictly under it? O=C1NC(=O)/C(=C/c2ccc(-c3ccccc3O)o2)S1
YES
